Target: hMCR-1a (Homo sapiens (Human))
Sequence (Q01726 whole entry): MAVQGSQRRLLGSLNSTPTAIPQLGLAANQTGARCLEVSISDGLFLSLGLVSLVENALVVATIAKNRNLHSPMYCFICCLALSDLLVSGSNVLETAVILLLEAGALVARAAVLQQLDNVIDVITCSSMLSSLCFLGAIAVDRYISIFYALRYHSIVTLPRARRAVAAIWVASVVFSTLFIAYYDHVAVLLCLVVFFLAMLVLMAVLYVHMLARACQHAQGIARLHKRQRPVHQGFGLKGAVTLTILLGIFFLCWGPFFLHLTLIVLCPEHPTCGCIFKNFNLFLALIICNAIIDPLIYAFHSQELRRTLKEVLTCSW
Assay: Competitive inhibition binding assay using [I125]-NDP-α-MSH, hMCR-1a
Conditions: membrane homogenates of HEK-293 cells, human recombinant receptor, averaged, read-out: MC-1 Ki (average)
Procedure: A competitive inhibition binding assay was performed using membrane homogenates prepared from HEK-293 cells that express recombinant hMCR-1a or hMCR-4 (in each instance where the h prefix refers to human), or alternatively membrane homogenates from B16-F10 mouse melanoma cells containing endogenous murine MCR-1. […] Plates were counted in a Microbeta counter for bound radioactivity. […] Ki values for peptides of the present invention were determined using Graph-Pad Prism® curve-fitting software. […]
pKi: −log10 of the molar value. Bridge positions count the residues as written; N and C are the ends. Square brackets hold non-standard residues; d marks the D form. Peptide text beside a SMILES is read from it. dPhe(4-Cl) = N[C@H](Cc1ccc(Cl)cc1)C(=O)O; dPhe(4-Me) = Cc1ccc(C[C@@H](N)C(=O)O)cc1; dPhe(2-Cl) = N[C@H](Cc1ccccc1Cl)C(=O)O; dPhe(4-F) = N[C@H](Cc1ccc(F)cc1)C(=O)O; dPhe(2-F) = N[C@H](Cc1ccccc1F)C(=O)O; Nle = CCCC[C@H](N)C(=O)O; Orn = NCCC[C@H](N)C(=O)O; Dab = NCC[C@H](N)C(=O)O
ASSAY_READOUT: pKi

Before answering, review these 4 worked examples.
MOLECULE: CCCC[C@H](NC(C)=O)C(=O)N[C@H]1CCC(=O)NCC[C@@H](C(N)=O)NC(=O)[C@H](CCCNC(=N)N)NC(=O)[C@@H](Cc2ccc(C)cc2)NC(=O)[C@H](CCCN)NC1=O [Example 9.63] (Ac-[Nle]E[Orn][dPhe(4-Me)]R[Dab]-NH2; lactam 2-6)
pKi: 8.52

MOLECULE: CCCC[C@H](NC(C)=O)C(=O)N[C@H]1CCC(=O)NCC[C@@H](C(N)=O)NC(=O)[C@H](CCCNC(=N)N)NC(=O)[C@@H](Cc2ccc(Cl)cc2)NC(=O)[C@H](CCCN)NC1=O [Example 9.59] (Ac-[Nle]E[Orn][dPhe(4-Cl)]R[Dab]-NH2; lactam 2-6)
pKi: 8.70

MOLECULE: CCCC[C@H](NC(C)=O)C(=O)N[C@H]1CCC(=O)NCC[C@@H](C(N)=O)NC(=O)[C@H](CCCNC(=N)N)NC(=O)[C@@H](Cc2ccccc2F)NC(=O)[C@H](CCCN)NC1=O [Example 9.60] (Ac-[Nle]E[Orn][dPhe(2-F)]R[Dab]-NH2; lactam 2-6)
pKi: 7.74

MOLECULE: N=C(N)NCCC[C@@H]1NC(=O)[C@@H](Cc2ccccc2)NC(=O)[C@H](Cc2c[nH]cn2)NC(=O)[C@@H](NC(=O)C2CC2)CCC(=O)NCC[C@@H](C(=O)N[C@@H](Cc2c[nH]c3ccccc23)C(N)=O)NC1=O
pKi: 8.52

I. CCCC[C@H](NC(C)=O)C(=O)N[C@H]1CCC(=O)NCC[C@@H](C(=O)N[C@@H](Cc2c[nH]c3ccccc23)C(N)=O)NC(=O)[C@H](CCCNC(=N)N)NC(=O)[C@@H](Cc2ccccc2)NC(=O)[C@H]2CCCN2C1=O
II. CCCC[C@H](NC(C)=O)C(=O)N[C@H]1CCC(=O)NCC[C@@H](C(N)=O)NC(=O)[C@H](CCCNC(=N)N)NC(=O)[C@@H](Cc2ccccc2Cl)NC(=O)[C@H](CCCN)NC1=O [Example 9.57] (Ac-[Nle]E[Orn][dPhe(2-Cl)]R[Dab]-NH2; lactam 2-6)
III. CCCC[C@H](NC(C)=O)C(=O)N[C@H]1CCC(=O)NC[C@@H](C(=O)N[C@@H](Cc2c[nH]c3ccccc23)C(=O)O)NC(=O)[C@H](CCCNC(=N)N)NC(=O)[C@@H](Cc2ccccc2)NC(=O)[C@H](Cc2c[nH]cn2)NC1=O
*Q* Place the items in sequence of falling pKi. Provide your answer as the labels ordered per the instruction.
*A* III, I, II

P. CCCC[C@H](NC(C)=O)C(=O)N[C@H]1CCC(=O)NCC[C@@H](C(N)=O)NC(=O)[C@H](CCCNC(=N)N)NC(=O)[C@@H](Cc2ccc(F)cc2)NC(=O)[C@H](CCCN)NC1=O [Example 9.61] (Ac-[Nle]E[Orn][dPhe(4-F)]R[Dab]-NH2; lactam 2-6)
Q. N=C(N)NCCC[C@@H]1NC(=O)[C@@H](Cc2ccccc2)NC(=O)[C@H](Cc2c[nH]cn2)NC(=O)[C@@H](NC(=O)CC2CCCC2)CCC(=O)NCC[C@@H](C(=O)N[C@@H](Cc2c[nH]c3ccccc23)C(N)=O)NC1=O
*Q* When P and Q are compared, which has the higher number for pKi? Identify your pick by its label.
*A* Q
